System: RAW264.7
assayNotes: Antiinflammatory activity in mouse RAW264.7 cells assessed as inhibition of LPS-induced NO production at 20 uM after 24 hrs by Griess method
Type: functional, cell-based
Calls of active or inactive are those of the source. No cut-off for these calls is given here.
recordedEndpoint: Activity

{"smilesRecord": "CC(C)(C)OC(=O)NCCCC[C@H](NC(=O)OC(C)(C)C)C(=O)O[C@H]1CC[C@]2(C)[C@H]3C[C@@H](O)[C@@H]4[C@@H]([C@]5(C)CC[C@H](C(C)(C)O)O5)CC[C@@]4(C)[C@]3(C)CC[C@H]2C1(C)C", "studyTarget": "RAW264.7", "recordedEndpoint": "Activity", "dataValue": "Active"}
{"smilesRecord": "CC(C)(O)[C@H]1CC[C@@](C)([C@H]2CC[C@]3(C)[C@@H]2[C@H](O)C[C@@H]2[C@@]4(C)CC[C@H](OC(=O)[C@@H](N)CCC(=O)O)C(C)(C)[C@@H]4CC[C@]23C)O1", "studyTarget": "RAW264.7", "recordedEndpoint": "Activity", "dataValue": "Active"}
{"smilesRecord": "CC(C)(O)[C@@H]1CC[C@@](C)([C@H]2CC[C@]3(C)[C@@H]2[C@H](O)C[C@@H]2[C@@]4(C)CC[C@H](OC(=O)CNC(=O)CNC(=O)CN)C(C)(C)[C@@H]4CC[C@]23C)O1", "studyTarget": "RAW264.7", "recordedEndpoint": "Activity", "dataValue": "Active"}

Each recorded value in this set is attributed to ChEMBL document CHEMBL4765372.
